Data credit: PubChem BioAssay

experiment: galactose survival enhancers in mitochondrial complex I cybrids – cell-based, galactose medium, ATP luminescence, primary screen (AID 1645843); conditions: complex I mutant cybrid cells, 72 h;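 further: positive z means more ATP and so rescue of galactose-driven cybrid death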
Activity calls are given as the source filed them.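 How the source made its calls: active means z-score of at least 1.8 in each of two replicates, scored against plate mean and spread of sample wells; inactive means the rest.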
Just give me one of these, please: active, inactive

Check out these entries, answers already filled in.
CC(C)C(=O)N1CCC(CNC(=O)c2ccno2)CC1 | inactive
O=C1N[C@@H](CSCc2ccccc2)C(=O)N2CCN(C(=O)Oc3ccccc3)C[C@H]12 | inactive
N#Cc1ccc(C(=O)N2CCNC(=O)C2Cc2ccccc2)cc1 (centres undefined) | inactive
CC[n+]1c(/C=C/C=C2/N(C)c3ccccc3C2(C)C)sc2ccccc21 | inactive
Cc1nsc(NC(=O)N2CCCCC2c2ccc(F)cc2)n1 (centres undefined) | inactive

**Q:** Could you kindly confirm the outcome this assay logged for "Cc1cc2c(cc1Cl)N(C(=O)Nc1ccnc3ccccc13)CC2" ?
**A:** inactive

**Q:** Could you kindly confirm the outcome this assay logged for "O=C(O)c1ccc(B(O)O)cc1" ?
**A:** inactive

---

test: growth inhibition, MDA-MB-436, cell-based, BGB or cisplatin combos, synergistic combos for chromothripsis tumors (AID 1671458); conditions: MDA-MB-436 breast carcinoma growth inhibition, drug combinations; at 0.5 µM; active compounds read high;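 further: cells exposed for 96 hours; 0% = vehicle DMSO and 100% = killing by high DMSO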
attributeMeasured: inhibition (%)
Note: unit % is implicit; provide only the numeric part.

Before answering, review these 8 worked examples.
Cc1cn(C2CC(O)C(COP(=O)(O)OP(=O)(O)OP(=O)(O)O)O2)c(=O)[nH]c1=O (centres undefined) | 2
C[C@@H]1O[C@@H](O[C@@H]2[C@@H](O)[C@H](OCCc3ccc(O)c(O)c3)O[C@H](CO)[C@H]2OC(=O)C=Cc2ccc(O)c(O)c2)[C@H](O)[C@H](O)[C@H]1O | -13.3
CO[C@H]1/C=C/O[C@@]2(C)Oc3c(C)c(O)c4c(O)c(c5c(c4c3C2=O)=NC2(CCN(CC(C)C)CC2)N=5)NC(=O)/C(C)=C\C=C\[C@H](C)[C@H](O)[C@@H](C)[C@@H](O)[C@@H](C)[C@H](OC(C)=O)[C@@H]1C | 0.36
CC1CNC(=O)NC1=O (centres undefined) | -18.9
COc1cccc2c1C(=O)c1c(O)c3c(c(O)c1C2=O)CC(O)(C(=O)CO)CC3OC1CC(N)C(OC2CCCCO2)C(C)O1 (centres undefined) | 24.8
O=c1[nH]c(=S)[nH]c2nc(-c3ccccc3)c(-c3ccccc3)nc12 | -2.86
O=c1[nH]cnc2c1ncn2C1CCC(CO)O1 (centres undefined) | -28.3
CC(C)(C#N)c1ccc(N2C(=O)OCc3cnc4ccc(-c5cnc6ccccc6c5)cc4c32)cc1 | -25

**Q:** Looking for the measured inhibition of "O=C1N=c2ccccc2=C1c1c(O)[nH]c2ccccc12" , can you help?
**A:** 0.62

**Q:** Looking for the measured inhibition of "Cn1cc(-c2cnn3c(N)c(Br)c([C@H]4CCCNC4)nc23)cn1" , can you help?
**A:** 29.3

**Q:** Looking for the measured inhibition of CCC1(O)C(=O)OCc2c1cc1n(c2=O)Cc2cc3cc(O)ccc3nc2-1 (centres undefined) , can you help?
**A:** 65.8

**Q:** Looking for the measured inhibition of C=C1CCC(O)CC1=CC=C1CCCC2(C)C1CCC2C(C)C=CC(C)C(C)C (centres undefined) , can you help?
**A:** -12.5

**Q:** Looking for the measured inhibition of "C[n+]1ccc(-c2c3nc(c(-c4cc[n+](C)cc4)c4ccc([nH]4)c(-c4cc[n+](C)cc4)c4nc(c(-c5cc[n+](C)cc5)c5ccc2[nH]5)C=C4)C=C3)cc1" , can you help?
**A:** -9.73
